The reader will find reported %Inh values listed item by item below.
tested on: ICK; settings: concentration: 1 μM, replicates: in singlicate; n = 1;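 also: KINOMEscan kinase panel screen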
Provide only the numeric value, understood in %.

// below: answered compounds
compound	%Inh, %
Cl.Cl.c1ccc(-c2cc3ccncc3cc2OC2CCNCC2)cc1 [GSK1122999]	0
Oc1ccc2ncnc(Nc3ccc(OCc4ccccc4)cc3)c2c1 [GI262866]	7
CS(=O)(=O)CCNCc1ccc(-c2ccc3ncnc(Nc4ccc(OCc5ccccc5)c(Cl)c4)c3c2)o1.Cl [GW574783]	0
Clc1cccc(-c2nc(Nc3ccncc3)c3ccccc3n2)c1 [GW873004]	0
COC(=O)c1cccc(NC(=O)NCCNc2ccnc(Nc3ccc(F)cc3)n2)c1 [GSK1379883]	0

Query string: Requested read-out: %Inh. Entry: COc1cc2c(Nc3cccc(NC(=O)c4ccccc4)c3)ncnc2cc1OCCCN1CCOCC1 [GSK223810]
Result string: 0

Query string: CC(C)N1CCC(n2cnc(-c3ccc(F)cc3)c2-c2ccnc(N)n2)CC1 [SB-223132] , same question.
Result string: 0

Query string: And the next one, Cc1cc(N2CCC(NS(=O)(=O)c3ccc(F)cc3)CC2)nc(Nc2cccc(C#N)c2)n1.O=C(O)C(F)(F)F [GSK1653537] ?
Result string: 0

Query string: Likewise for O=C(NCCCN1CCCC1=O)c1cnc(NCc2cc(Cl)ccc2Cl)nc1NC1CCNCC1 ?
Result string: 0

Query string: Continue with O=C(CCO)NCCn1ccc2ncnc(Nc3ccc(Oc4cccc(C(F)(F)F)c4)c(Cl)c3)c21
Result string: 0

Query string: Please give the result for O=C(c1ccc(-c2cc(-c3c[nH]nc3-c3ccccn3)ccn2)cc1)N1CCCC1 [GW792479] too.
Result string: 0

Query string: Moving on to the next compound: Fc1ccc(Nc2nccc(-c3c(-c4ccc(Cl)cc4)nn4ncccc34)n2)cc1F [GW829058]
Result string: 25

Query string: Ok, now Fc1ccc(-c2ncn(CCCNCc3ccccc3)c2-c2ccncc2)cc1
Result string: 12

Query string: Follow-up entry: CSc1ccc(NC2=C(c3ccccc3Cl)C(=O)NC2=O)cc1 [SB-342411]
Result string: 40

Query string: Next compound: CSc1nn2c(=O)cc(N3CCOCC3)nc2n1Cc1cccc(Cl)c1Cl [GSK2347225]
Result string: 0

Query string: Thanks! And CN1CCC(n2cnc(-c3ccc(F)cc3)c2-c2ccnc(NC3CCNCC3)n2)CC1 [SB-229482] ?
Result string: 45

Query string: Moving on to the next compound: c1ccc(-c2ccc3c(-c4ccnc(Nc5ccc6c(c5)OCCO6)n4)cnn3n2)cc1 [GW818941]
Result string: 8

Query string: Same question for CC(C)(C)OC(=O)NC1CCCN(c2cc(-c3ccc4c(N)n[nH]c4c3)nc(N)n2)C1 (stereo not drawn) [GSK2286096] please.
Result string: 7

This collection of values is drawn from paper PMC5540273.
